assay.protocol: Multiple ascending dose study, plasma pharmacokinetics
Format: in vivo, human (healthy volunteers)
cond: human, plasma, po, 0.5 mg, 0.5 mg oral QD, Day 12; read-out: t1/2 (mean) (converted)
assay.endpoint: half-life

Query: Returns the measured half-life for the input compound. Input: CC(C)(O)c1cnn2c(-c3ccc(F)c(-c4c(F)cccc4C#N)c3)cnc2n1 [Compound 1]
Reply: 66 h

###

assay.protocol: Multiple ascending dose study, plasma pharmacokinetics
Assay type: in vivo, human (healthy volunteers)
cond: human, plasma, po, 1 mg, 1.0 mg oral QD, Day 12; read-out: t1/2 (median) (converted)
assay.endpoint: half-life (h)
Reply with just the number (in h).

Query: Returns the measured half-life for the input compound. Input: `CC(C)(O)c1cnn2c(-c3ccc(F)c(-c4c(F)cccc4C#N)c3)cnc2n1`
Reply: 58.2

###

assay.protocol: Multiple ascending dose study, plasma pharmacokinetics
Assay type: in vivo, human (healthy volunteers)
cond: human, plasma, po, 1.5 mg, 1.5 mg oral QD, Day 1; read-out: Cmax (median)
assay.endpoint: Cmax at 24 h (ng/mL)
Reply with just the number (in ng/mL).

Query: Returns the measured Cmax at 24 h for the input compound. Input: `CC(C)(O)c1cnn2c(-c3ccc(F)c(-c4c(F)cccc4C#N)c3)cnc2n1`
Reply: 18.2

###

assay.protocol: Multiple ascending dose study, plasma pharmacokinetics
Type: in vivo, human (healthy volunteers)
cond: human, plasma, po, 5 mg, 5.0 mg oral QD, Day 1; read-out: Cmax (mean)
assay.endpoint: Cmax at 24 h (ng/mL)
Reply with just the number (in ng/mL).

Query: Returns the measured Cmax at 24 h for the input compound. Input: `CC(C)(O)c1cnn2c(-c3ccc(F)c(-c4c(F)cccc4C#N)c3)cnc2n1`
Reply: 49.7

###

tested.system: human GABAA receptor α2/β3/γ2 (Homo sapiens, UniProt P18507+P47869)
Sequence (P47869 29-451): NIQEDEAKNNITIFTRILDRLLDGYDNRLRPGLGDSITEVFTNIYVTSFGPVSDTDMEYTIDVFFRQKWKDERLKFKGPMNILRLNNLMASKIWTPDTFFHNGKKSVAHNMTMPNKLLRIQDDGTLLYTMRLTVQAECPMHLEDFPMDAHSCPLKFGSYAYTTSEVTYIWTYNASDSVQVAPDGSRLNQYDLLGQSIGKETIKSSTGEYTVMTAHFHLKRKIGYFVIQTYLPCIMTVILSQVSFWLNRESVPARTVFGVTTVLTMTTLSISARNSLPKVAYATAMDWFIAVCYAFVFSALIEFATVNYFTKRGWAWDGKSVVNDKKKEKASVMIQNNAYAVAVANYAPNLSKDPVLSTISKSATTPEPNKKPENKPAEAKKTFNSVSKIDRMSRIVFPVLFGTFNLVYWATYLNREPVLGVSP
Sequence (P18507 40-475): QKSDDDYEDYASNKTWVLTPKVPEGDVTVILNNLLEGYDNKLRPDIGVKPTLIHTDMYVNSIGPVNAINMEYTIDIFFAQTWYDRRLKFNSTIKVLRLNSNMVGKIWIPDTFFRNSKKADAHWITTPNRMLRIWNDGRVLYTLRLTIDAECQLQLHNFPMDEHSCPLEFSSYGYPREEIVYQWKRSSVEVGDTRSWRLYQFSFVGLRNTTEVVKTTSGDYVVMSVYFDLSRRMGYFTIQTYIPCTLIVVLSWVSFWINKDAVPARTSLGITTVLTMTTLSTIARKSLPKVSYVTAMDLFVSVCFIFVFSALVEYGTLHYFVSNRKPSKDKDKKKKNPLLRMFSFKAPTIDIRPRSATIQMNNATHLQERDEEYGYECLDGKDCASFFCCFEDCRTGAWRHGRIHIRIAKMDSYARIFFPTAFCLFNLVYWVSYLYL
Sequence (P28472 26-473 partner): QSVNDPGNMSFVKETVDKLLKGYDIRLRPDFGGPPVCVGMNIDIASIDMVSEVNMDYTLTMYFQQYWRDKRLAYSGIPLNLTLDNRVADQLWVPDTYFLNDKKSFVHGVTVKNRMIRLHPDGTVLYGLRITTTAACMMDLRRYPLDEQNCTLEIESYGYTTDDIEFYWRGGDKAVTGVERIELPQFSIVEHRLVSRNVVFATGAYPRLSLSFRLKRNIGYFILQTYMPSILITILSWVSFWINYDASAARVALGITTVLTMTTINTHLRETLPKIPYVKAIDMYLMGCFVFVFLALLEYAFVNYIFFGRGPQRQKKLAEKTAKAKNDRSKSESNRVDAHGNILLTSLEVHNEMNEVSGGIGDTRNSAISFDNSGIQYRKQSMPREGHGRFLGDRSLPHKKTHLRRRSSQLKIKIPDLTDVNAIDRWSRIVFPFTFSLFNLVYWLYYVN
assay.protocol: SyncroPatch platform, PAM mode, GABAA α2/β3/γ2
assay.endpoint: EC50 (nM)
Reply with just the number (in nM).

Query: Returns the measured EC50 for the input compound. Input: CC(C)(O)c1cnn2c(-c3ccc(F)c(-c4c(F)cccc4C#N)c3)cnc2n1 [Compound 1]
Reply: 0.82

###

assay.protocol: Multiple ascending dose study, plasma pharmacokinetics
Assay type: in vivo, human (healthy volunteers)
cond: human, plasma; 1.0 mg oral QD, Day 1; read-out: Tmax (median)
assay.endpoint: Tmax at 24 h (h)
Reply with just the number (in h).

Query: Returns the measured Tmax at 24 h for the input compound. Input: `CC(C)(O)c1cnn2c(-c3ccc(F)c(-c4c(F)cccc4C#N)c3)cnc2n1`
Reply: 3

###

assay.protocol: Multiple ascending dose study, plasma pharmacokinetics
Format: in vivo, human (healthy volunteers)
cond: human, plasma, po, 0.5 mg, 0.5 mg oral QD, Day 12; read-out: AUCtau (median)
assay.endpoint: AUC tau
A complete answer gives the number followed by the unit.

Query: Returns the measured AUC tau for the input compound. Input: `CC(C)(O)c1cnn2c(-c3ccc(F)c(-c4c(F)cccc4C#N)c3)cnc2n1`
Reply: 201 ng·h/mL

###

assay.protocol: Multiple ascending dose study, plasma pharmacokinetics
Type: in vivo, human (healthy volunteers)
cond: human, plasma, po, 1.5 mg, 1.5 mg oral QD, Day 12; read-out: Cmax (mean)
assay.endpoint: Cmax at 288 h (ng/mL)
Reply with just the number (in ng/mL).

Query: Returns the measured Cmax at 288 h for the input compound. Input: `CC(C)(O)c1cnn2c(-c3ccc(F)c(-c4c(F)cccc4C#N)c3)cnc2n1`
Reply: 41.7
